# Assay: Acute toxicity (LD50 in mice)
# Condition info: mouse, in vivo, oral, read-out: Acute toxicity LD50, oral
Measured parameter: LD50

>>> df
                                   molecule         result
0  CC(C)N1CC(O)C2=CC(=NNC(N)=O)C(=O)C=C21 (stereo not shown)  ≥ 10000 mg/kg
